Cited source: the supplement of paper PMC8047044

System: Neuro-2a
Assay: neurite formation score, plate-normalized to DMSO control mean 5.04 (score (0-8 scale)); higher = more or longer neurites
Conditions: 0.1 µM
assay_readout: neurite formation score

The following compounds have reported results that may help.
[
  {
    "compound": "FC(F)(F)c1ccc(CNc2ccc(Cc3c[nH]c4ncc(Cl)cc34)cn2)cn1",
    "neurite formation score": 5.42
  },
  {
    "compound": "O=C(CCCCCCC(=O)Nc1ccc(I)cc1)NO",
    "neurite formation score": 4.42
  },
  {
    "compound": "N#CCNC(=O)c1ccc(-c2ccnc(Nc3ccc(N4CCOCC4)cc3)n2)cc1",
    "neurite formation score": 4.92
  },
  {
    "compound": "O=C(Nc1ccc(OC(F)(F)F)cc1)c1sccc1NCc1ccnc2ccccc12",
    "neurite formation score": 3.38
  },
  {
    "compound": "Cn1cc(/C=C2\\C(=O)Nc3cccnc32)c2ccccc21",
    "neurite formation score": 4.08
  },
  {
    "compound": "C[C@]1(O)C[C@@H](c2nc(-c3ccc4ccc(-c5ccccc5)nc4c3)c3c(N)nccn32)C1",
    "neurite formation score": 4.54
  },
  {
    "compound": "CNc1nc(-c2ccc3c(N)n[nH]c3c2)cc(N2C[C@@H](C(=O)NC3CCCCC3)CC[C@H]2C)n1",
    "neurite formation score": 1.42
  },
  {
    "compound": "Cc1cnc(NC(=O)Nc2cc(Br)c(C)cc2OC[C@@H]2CNCCO2)cn1",
    "neurite formation score": 4.58
  },
  {
    "compound": "CC(C)CCN1c2nc(Nc3cc(F)c(O)c(F)c3)ncc2N(C)C(=O)C1C (stereo unspecified)",
    "neurite formation score": 3.42
  },
  {
    "compound": "O=C(c1ccc(/C=C/c2n[nH]c3ccccc23)cc1)N1CCNCC1",
    "neurite formation score": 1.92
  }
]

Now for another entry.
Lab note: CCN(CC)CCCC(C)Nc1ccnc2cc(Cl)ccc12 (stereo unspecified) [Chloroquine diphosphate] gave neurite formation score of 4.58
